Below: a set of entries, each annotated with reported melting point.

>>> data_value("O=c1nc(-c2ccccc2C(F)(F)F)sc2ccccc12 [Example 19]")
"139.6 to 139.8 °C"

IN: In one line, give reported melting point of the entry O=c1nc(C2CC2)sc2ccccc12 [Example 1, 2-Cyclopropyl-4H-1,3-benzothiazin-4-one] .
OUT: 119.5 to 119.6 °C

IN: In one line, give reported melting point of the entry O=C(O)CCc1cccc(-c2nc(=O)c3ccccc3s2)c1 [Example 7] .
OUT: 179.8 to 180.2 °C

IN: In one line, give reported melting point of the entry N#Cc1cccc(-c2nc(=O)c3ccccc3s2)c1 [Example 8] .
OUT: 199.6 to 199.7 °C

IN: In one line, give reported melting point of the entry O=C1NC(=C2CCCC2)Sc2ccccc21 [Example 3] .
OUT: 190.4 to 191.4 °C

IN: In one line, give reported melting point of the entry O=C1NC(=C2CCCCC2)Sc2ccccc21 [Example 4] .
OUT: 145.6 to 147.1 °C

IN: In one line, give reported melting point of the entry O=c1nc(-c2cccc(C(F)(F)F)c2)sc2ccccc12 [Example 20] .
OUT: 114.6 to 114.7 °C
